# tested system: IN1−288 F185K/C250S (HIV-1 integrase) (Human immunodeficiency virus type 1 group M subtype B, UniProt P12497, C1427S/F1332K)
# Construct: we first expressed and purified IN1−288 F185K/C250S as previously described
# experimental details: Fluorescence anisotropy binding of fluorescein-labeled IN181−188 peptides to IN
Residues, ends and D or L forms follow the SMILES beside them. *: point of attachment. 5FAM = O=C1OC2(c3ccc(O)cc3Oc3cc(O)ccc32)c2ccc(C(=O)*)cc21
I'd be grateful if you could share measured pKd for these entries.
For clarity, pKd is expressed as the negative log10 of concentration in mol/L.

// `CC[C@H](C)[C@@H]1NC(=O)[C@H](Cc2ccccc2)NC(=O)CN(C(=O)[C@H](Cc2c[nH]c3ccccc23)NC(=O)c2ccc3c(c2)C(=O)OC32c3ccc(O)cc3Oc3cc(O)ccc32)CCCn2cc(nn2)CN(CC(N)=O)C(=O)[C@H](CCCCN)NC(=O)[C@H](CCCNC(=N)N)NC(=O)[C@H](CCCCN)NC(=O)[C@H](Cc2ccccc2)NC(=O)[C@H](CC(N)=O)NC(=O)[C@H](Cc2c[nH]cn2)NC1=O` : pKd value = 5.09

Item: `CC[C@H](C)[C@@H]1NC(=O)[C@H](Cc2ccccc2)NC(=O)CN(C(=O)[C@H](Cc2c[nH]c3ccccc23)NC(=O)c2ccc3c(c2)C(=O)OC32c3ccc(O)cc3Oc3cc(O)ccc32)Cc2cn(nn2)CCN(CC(N)=O)C(=O)[C@H](CCCCN)NC(=O)[C@H](CCCNC(=N)N)NC(=O)[C@H](CCCCN)NC(=O)[C@H](Cc2ccccc2)NC(=O)[C@H](CC(N)=O)NC(=O)[C@H](Cc2c[nH]cn2)NC1=O` | pKd: 5.15

Lab book: pKd of CC[C@H](C)[C@H](NC(=O)[C@H](Cc1ccccc1)NC(=O)CNC(=O)[C@H](Cc1c[nH]c2ccccc12)NC(=O)c1ccc2c(c1)C(=O)OC21c2ccc(O)cc2Oc2cc(O)ccc21)C(=O)N[C@@H](Cc1c[nH]cn1)C(=O)N[C@@H](CC(N)=O)C(=O)N[C@@H](Cc1ccccc1)C(=O)N[C@@H](CCCCN)C(=O)N[C@@H](CCCNC(=N)N)C(=O)N[C@@H](CCCCN)C(=O)NCC(N)=O [Fl-WT IN181−188, reference compound] (5FAM-WGFIHNFKRKG-NH2; N-terminus assumed) noted as 5.12
